Every entry's value here was drawn from the supplement of paper PMC10567573.

Measured protein stability index values are reported for all entries that follow.
PROTOCOL TEXT: protein stability index of a GFP-peptide fusion (GPS, HEK-293T) (PSI 1-6); higher = more stable;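 also: 24-mer peptide tiles fused after GFP, lentivirally expressed, FACS-sorted into six equal bins by GFP/DsRed ratio, decoded by Illumina sequencing, PSI is the read-weighted mean bin number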
CONDITIONS: treatment: MLN4924 1 uM, 8 h; c terminus: a fixed tail appended
// no unit, no text: just the number

QUERY: Suppose we examine the sequence LQKDEYRPDKALSEGDLKNAIRVH [PSD2] ; what protein stability index value has been reported?
RESULT: 4.58

QUERY: Another: KKCVKKFVEYCDVNNDKSISVQEL [SMOC2]
RESULT: 3.68

QUERY: Another: TTLGPKLASQALTPPPGPASAQPL [TFE3]
RESULT: 4.4

QUERY: Another: MVVDFWTWEQTFQELIQEAKPRAT [RTP4]
RESULT: 2.2

QUERY: Another: ELRRRRYEYDHWDAAIHGFRETEK [ALKBH7]
RESULT: 3.56

QUERY: Another: ERTKSRLVNTSENLSKSRKILRSM [VTI1B]
RESULT: 3.87

QUERY: Another: VCVRAHESVVKSEDFSLPAYMDRR [COX4I1]
RESULT: 3.14

QUERY: Another: AMEKFREDEGFLREEERPLPRRDF [KCNA3]
RESULT: 4.74

----------
PROTOCOL TEXT: protein stability index of a GFP-peptide fusion (GPS, HEK-293T) (PSI 1-6); higher = more stable
CONDITIONS: treatment: DMSO; c terminus: a fixed tail appended
Measured protein stability index values are reported for all entries that follow.
// no unit, no text: just the number

SEQUENCE STRING: MNMLWSRMLKDNKKNWRRVYKSLL [CLINT1]
protein stability index: 2.62

QUERY: Suppose we examine the sequence VITALKCHKYDRNIQVTGSAALFY [ZER1] ; what protein stability index value has been reported?
RESULT: 2.84

QUERY: Another: LANGRALSAGSPPVPPGWNPNSSS [DLX1]
RESULT: 3.93

----------
Measured protein stability index values are reported for all entries that follow.
PROTOCOL TEXT: protein stability index of a GFP-peptide fusion (GPS, HEK-293T) (PSI 1-6); higher = more stable
CONDITIONS: treatment: DMSO; c terminus: a fixed tail appended
// no unit, no text: just the number

QUERY: Suppose we examine the sequence HMVKISGGPHISYPPLHEWVLREG [MAGEA3] ; what protein stability index value has been reported?
RESULT: 2.29

QUERY: Another: PRHPIRALVGDEVELPCRISPGKN [MOG]
RESULT: 4.62

QUERY: Another: SSPDDKLLTSPRAINNLVLQGCSS [KLHL14]
RESULT: 3.99

QUERY: Another: LGSAPLDQEPLLSIDLGTAHSAAV [NEK8]
RESULT: 4.08

QUERY: Another: YAADRNCMWSKKCSGVACLVKDNP [WASL]
RESULT: 3.08

QUERY: Another: RVYDGREILTCGRDGEPEPMQKLQ [RBBP5]
RESULT: 4.02

QUERY: Another: IPGKVIDEIYRVLRYVNSTRAPQR [FBXO28]
RESULT: 2.2

QUERY: Another: EPFGKERDAAIKKLATEAGVEVIV [CRY1]
RESULT: 3.59

QUERY: Another: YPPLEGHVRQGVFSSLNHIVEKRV [INTS3]
RESULT: 3.17

----------
PROTOCOL TEXT: protein stability index of a GFP-peptide fusion (GPS, HEK-293T) (PSI 1-6); higher = more stable
CONDITIONS: treatment: MLN4924 1 uM, 8 h; c terminus: a fixed tail appended
Please enter fulfilled where protein stability index is greater than or equal to 3, and not fulfilled where it is lower.

QUERY: Given NPNFEVAESDYSNNIMKCRSRYDG [LOXL2] , state whether its protein stability index is at least 3.
RESULT: fulfilled

QUERY: Another: LEYRFYEQLGSGDGIPQVYYFGPC [CSNK1G3]
RESULT: not fulfilled

QUERY: Another: VVPDVRSVVTTARMQVLKRQVQSL [SMARCE1]
RESULT: not fulfilled

QUERY: Another: VNGSWYIQDLCEMLGKYGSSLEFT [CASP6]
RESULT: not fulfilled

QUERY: Another: LNGTKVAEGHKASFCLEDTECEGD [LOXL2]
RESULT: fulfilled

QUERY: Another: EDDIRPDIKDDIYDPTYKDKEGPS [SCD]
RESULT: fulfilled

----------
PROTOCOL TEXT: protein stability index of a GFP-peptide fusion (GPS, HEK-293T) (PSI 1-6); higher = more stable
CONDITIONS: treatment: MLN4924 1 uM, 8 h; c terminus: a fixed tail appended
Measured protein stability index values are reported for all entries that follow.

Here is how some sequences turned out for protein stability index.
SEQUENCE STRING: KEKDSPFKPKLYKGDRGLPLEGSA [RBBP5]
OBSERVED MEASUREMENT: 4.32
//
SEQUENCE STRING: VDLNRNFPDLNTYIYYNEKYGGPN [CPN1]
OBSERVED MEASUREMENT: 2.53
//
SEQUENCE STRING: KLCKKGLAATTSMAYAKLMLTVMT [FANCE]
OBSERVED MEASUREMENT: 2.22
//
SEQUENCE STRING: SHLPTRSPSFPEAPDSGRSAPYSA [TBX6]
OBSERVED MEASUREMENT: 4.52
//
SEQUENCE STRING: SFALYLAGFCMFVLSLVKKHYRLQ [CDS1]
OBSERVED MEASUREMENT: 2.04
//
SEQUENCE STRING: METLCLRASFWLALVGCVISDNPE [EDNRA]
OBSERVED MEASUREMENT: 2.7
//
SEQUENCE STRING: PYGVYKKQQKDPSEEAAVLQYASL [ATE1]
OBSERVED MEASUREMENT: 3.8
//
SEQUENCE STRING: VTPEAKNLINQMLTINPAKRITAH [CAMK2B]
OBSERVED MEASUREMENT: 2.95

Okay, now this sequence:
QUERY: Suppose we examine the sequence LLNTLSLAFVGGLPLAYQQTSAFA [TMEM175] ; what protein stability index value has been reported?
RESULT: 2.74

----------
PROTOCOL TEXT: protein stability index of a GFP-peptide fusion (GPS, HEK-293T) (PSI 1-6); higher = more stable
CONDITIONS: treatment: DMSO; c terminus: a fixed tail appended
PARAMETER: protein stability index

Here is how some sequences turned out for protein stability index.
SEQUENCE STRING: AEIQEACCEFLKRQLDPSNCLGIR [KLHL20]
OBSERVED MEASUREMENT: 2.52
--
SEQUENCE STRING: DELALSLGYAASLEASVQDDAGTS [C2CD2L]
OBSERVED MEASUREMENT: 5.34

QUERY: Suppose we examine the sequence EETEVLAHEIERLQMEMKEDDVSF [TRIM35] ; what protein stability index value has been reported?
RESULT: 5.43

QUERY: Another: NPNFEVAESDYSNNIMKCRSRYDG [LOXL2]
RESULT: 4.42

QUERY: Another: HRTRLQDLRVLVSNASEDTRRLRL [SCARA5]
RESULT: 3.29

QUERY: Another: EPPPEVWQVLKTHPGDPRFQCSLW [POLD4]
RESULT: 2.45

QUERY: Another: RPRTRKVKSVSPQGNSVDRMAAPR [NCF4]
RESULT: 4.85

QUERY: Another: KIVLCAVSHVFMLLFNVKSPTDIQ [RHOBTB3]
RESULT: 3.16

QUERY: Another: QVADINDNPPTFSQVSYFTYIPEN [PCDHGA10]
RESULT: 2.98

QUERY: Another: EHNSSLVSQQTGSPGKQPGENSDC [ZNF8]
RESULT: 5.25

QUERY: Another: GKWMKKFPESETKECPFRVNKVCG [SERPINB5]
RESULT: 3.13

QUERY: Another: IFQEKHVNLLHIESRKSKRRNSEF [TPH1]
RESULT: 3.06

QUERY: Another: KVLTEPEVRYYLRQIVSGLKYLHE [PLK2]
RESULT: 3.19

----------
PROTOCOL TEXT: protein stability index of a GFP-peptide fusion (GPS, HEK-293T) (PSI 1-6); higher = more stable
CONDITIONS: treatment: MLN4924 1 uM, 8 h; c terminus: a fixed tail appended
PARAMETER: protein stability index
// no unit, no text: just the number

Here is how some sequences turned out for protein stability index.
SEQUENCE STRING: GSSFSGRVFRVTFLMLAVSLTVPL [APMAP]
protein stability index: 3.05
//
SEQUENCE STRING: AHDNSEELERARELKEKEATLCLE [ANKRD44]
protein stability index: 5.45
//
SEQUENCE STRING: DQWTPIAAMLRGQSDVGVAVFENK [KLHL13]
protein stability index: 3.42
//
SEQUENCE STRING: KWLSCGFMLEIVTPTSLSSLSNAV [FBXO33]
protein stability index: 3.57

Okay, now this sequence:
QUERY: Suppose we examine the sequence PLPTDPMLGLALGGLVVSAASLAG [TSPAN10] ; what protein stability index value has been reported?
RESULT: 2.65
